Cited source for all entries: paper PMC12682947

# Assay Remarks: Plasma pharmacokinetics and brain uptake of antrafenine in mice (LC-MS)
# Type: in vivo, male C57BL/6 mice
# Experimental Conditions: male, C57BL/6, mouse, plasma, iv, 3 mg/kg, plasma, IV administration at 3mg/kg; read-out: Apparent t1/2 (converted)
Measured Endpoint: half-life (h)
A number alone suffices; assume h.

Param item = O=C(OCCN1CCN(c2cccc(C(F)(F)F)c2)CC1)c1ccccc1Nc1ccnc2cc(C(F)(F)F)ccc12 ; retrieve measured half-life.
7.4

---

# Measured Target: WT/Y796H KCNT1 channels (Homo sapiens, UniProt Q5JUK3, Y796H)
# Construct: T2A self-cleaving motif ([…]) following the first subunit (C); expressed in transfected cells; host or cells: CHO cells
# Sequence (Q5JUK3 whole entry, stated change not applied): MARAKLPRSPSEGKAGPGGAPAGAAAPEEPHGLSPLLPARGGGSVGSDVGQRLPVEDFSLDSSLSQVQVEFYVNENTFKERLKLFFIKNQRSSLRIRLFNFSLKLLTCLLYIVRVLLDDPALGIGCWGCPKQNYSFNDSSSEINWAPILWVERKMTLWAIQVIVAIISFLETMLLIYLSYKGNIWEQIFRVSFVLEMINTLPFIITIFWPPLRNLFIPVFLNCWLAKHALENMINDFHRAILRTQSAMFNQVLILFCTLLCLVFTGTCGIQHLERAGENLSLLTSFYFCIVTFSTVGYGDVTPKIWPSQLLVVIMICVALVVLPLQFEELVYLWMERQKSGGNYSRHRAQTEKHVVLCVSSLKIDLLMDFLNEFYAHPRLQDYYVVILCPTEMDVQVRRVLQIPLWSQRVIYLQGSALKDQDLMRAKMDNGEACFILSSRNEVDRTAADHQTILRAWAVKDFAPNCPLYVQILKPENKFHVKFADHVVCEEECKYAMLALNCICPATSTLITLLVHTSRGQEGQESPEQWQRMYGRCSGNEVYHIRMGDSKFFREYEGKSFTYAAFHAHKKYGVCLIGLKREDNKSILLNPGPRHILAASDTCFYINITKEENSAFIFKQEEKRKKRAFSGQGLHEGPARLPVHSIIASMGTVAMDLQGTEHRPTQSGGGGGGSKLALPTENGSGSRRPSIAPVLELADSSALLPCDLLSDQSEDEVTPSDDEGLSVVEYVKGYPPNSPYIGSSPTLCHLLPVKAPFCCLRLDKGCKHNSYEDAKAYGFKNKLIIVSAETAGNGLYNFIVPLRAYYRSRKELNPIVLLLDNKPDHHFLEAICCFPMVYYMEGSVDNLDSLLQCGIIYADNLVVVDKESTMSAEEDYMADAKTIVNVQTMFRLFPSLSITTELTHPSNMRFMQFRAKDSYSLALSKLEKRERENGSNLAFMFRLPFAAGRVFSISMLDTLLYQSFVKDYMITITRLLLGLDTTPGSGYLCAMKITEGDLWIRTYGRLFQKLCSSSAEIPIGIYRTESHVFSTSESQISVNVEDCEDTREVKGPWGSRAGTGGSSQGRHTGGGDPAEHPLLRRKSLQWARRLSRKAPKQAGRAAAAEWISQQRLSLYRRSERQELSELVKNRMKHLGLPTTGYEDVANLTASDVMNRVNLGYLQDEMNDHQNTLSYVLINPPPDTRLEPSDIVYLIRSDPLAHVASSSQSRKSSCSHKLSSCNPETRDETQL
# Sequence (Q5JUK3 2-1230 Y796H limits assumed): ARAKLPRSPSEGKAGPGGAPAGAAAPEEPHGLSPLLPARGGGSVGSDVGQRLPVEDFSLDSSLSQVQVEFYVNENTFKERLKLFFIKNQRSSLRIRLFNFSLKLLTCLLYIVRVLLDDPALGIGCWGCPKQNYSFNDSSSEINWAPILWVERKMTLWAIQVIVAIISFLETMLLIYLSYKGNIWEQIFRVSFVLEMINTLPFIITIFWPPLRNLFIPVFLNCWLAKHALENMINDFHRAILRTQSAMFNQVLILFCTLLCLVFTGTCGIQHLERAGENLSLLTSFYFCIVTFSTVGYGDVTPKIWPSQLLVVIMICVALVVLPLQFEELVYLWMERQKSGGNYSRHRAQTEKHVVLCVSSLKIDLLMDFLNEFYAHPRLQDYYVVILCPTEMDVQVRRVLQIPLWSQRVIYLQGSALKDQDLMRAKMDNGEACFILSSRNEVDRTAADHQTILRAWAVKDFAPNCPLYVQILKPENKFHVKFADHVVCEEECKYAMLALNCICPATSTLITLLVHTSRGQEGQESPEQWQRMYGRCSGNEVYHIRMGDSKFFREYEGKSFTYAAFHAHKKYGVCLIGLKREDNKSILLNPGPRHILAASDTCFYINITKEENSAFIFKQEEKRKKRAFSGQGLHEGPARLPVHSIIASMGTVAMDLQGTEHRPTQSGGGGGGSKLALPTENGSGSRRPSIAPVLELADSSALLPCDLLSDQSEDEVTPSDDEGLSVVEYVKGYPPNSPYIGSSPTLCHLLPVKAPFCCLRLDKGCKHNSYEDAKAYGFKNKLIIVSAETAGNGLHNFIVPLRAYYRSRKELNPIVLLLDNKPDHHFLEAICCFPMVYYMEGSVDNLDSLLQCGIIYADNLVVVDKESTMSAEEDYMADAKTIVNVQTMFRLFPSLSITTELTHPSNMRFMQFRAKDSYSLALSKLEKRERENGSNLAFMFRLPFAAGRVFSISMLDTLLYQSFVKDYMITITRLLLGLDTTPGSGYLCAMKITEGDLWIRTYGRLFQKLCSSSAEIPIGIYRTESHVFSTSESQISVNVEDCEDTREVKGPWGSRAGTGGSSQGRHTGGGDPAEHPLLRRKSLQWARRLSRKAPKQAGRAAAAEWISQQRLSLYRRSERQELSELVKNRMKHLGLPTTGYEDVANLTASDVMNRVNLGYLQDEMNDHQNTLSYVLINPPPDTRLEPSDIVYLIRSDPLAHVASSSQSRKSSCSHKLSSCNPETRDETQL
# Assay Remarks: Whole-cell patch clamp of WT/Y796H KCNT1 channels expressed in CHO cells
# Type: cell-based
# Experimental: To replicate the heterozygous nature of KCNT1‐associated disorders and obtain channels comprising wild‐type (WT) and mutated subunits, a concatemeric approach was taken. […] Whole cell recordings from transiently transfected CHO cells were conducted at room temperature and analyzed as described previously.[29] […] Conductance values (G) with each voltage pulse (V) were obtained by dividing the peak steady‐state current by the driving force (command voltage minus the measured reversal potential). […]
Measured Endpoint: pIC50
Scale explanation: pIC50 corresponds to minus log10 of a concentration expressed in moles per litre.

Param item = O=C(OCCN1CCN(c2cccc(C(F)(F)F)c2)CC1)c1ccccc1Nc1ccnc2cc(C(F)(F)F)ccc12 ; retrieve measured pIC50.
5.89
